Reference source for all entries: the supplement of paper PMC9233669

Test system: biotinyl-Leu-oxazolone
assay.protocol: self-aminoacylation, catalytic enhancement (BLO) (fold over background); higher = more active; k-Seq, kA / k0A0; sequences stand for … in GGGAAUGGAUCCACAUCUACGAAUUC…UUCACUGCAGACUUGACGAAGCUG
Fewer inactive variants are shown than the library holds.
Quick reference for self-aminoacylation among some sequences
observation.type: self-aminoacylation

>  <sequence.text>
AUUCACCUCCGUCAUCGGGUG [Fam2.2 aminoacylation ribozyme variant]

>  <observation.type>
self-aminoacylation

>  <measurement>
10.8

$$$$
>  <sequence.text>
AUUCACUUAGGACAUCGGGUG [Fam2.2 aminoacylation ribozyme variant]

>  <observation.type>
self-aminoacylation

>  <measurement>
3.44

$$$$
>  <sequence.text>
ACUACCCUGGUCAUCGCGUGA [Fam2.1 aminoacylation ribozyme variant]

>  <observation.type>
self-aminoacylation

>  <measurement>
21.5

$$$$
>  <sequence.text>
AUUCACGUAGGUCUUCGGGUG [Fam2.2 aminoacylation ribozyme variant]

>  <observation.type>
self-aminoacylation

>  <measurement>
4.82

$$$$
>  <sequence.text>
AGUCACGUAGGUCAUCGGGUG [Fam2.2 aminoacylation ribozyme variant]

>  <observation.type>
self-aminoacylation

>  <measurement>
5.72

$$$$
>  <sequence.text>
GCACACUUCAAGCCAUCGGUC [Fam1B.1 aminoacylation ribozyme variant]

>  <observation.type>
self-aminoacylation

>  <measurement>
2.81

$$$$
>  <sequence.text>
CUACUCAAAACAAUCGGUCUG [Fam1A.1 aminoacylation ribozyme variant]

>  <observation.type>
self-aminoacylation

>  <measurement>
0.676

$$$$
>  <sequence.text>
AUUACCCUGGUUAGCGAGUGA [Fam2.1 aminoacylation ribozyme variant]

>  <observation.type>
self-aminoacylation

>  <measurement>
4.28

$$$$
>  <sequence.text>
AUUACCGUGGUCAUCGAGAGA [Fam2.1 aminoacylation ribozyme variant]

>  <observation.type>
self-aminoacylation

>  <measurement>
0.723

$$$$

* * *

Quick reference for self-aminoacylation among some sequences
Tested on: biotinyl-Phe-oxazolone
assay.protocol: self-aminoacylation, catalytic enhancement (BFO) (fold over background); higher = more active; k-Seq, kA / k0A0; sequences stand for … in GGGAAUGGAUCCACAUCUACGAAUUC…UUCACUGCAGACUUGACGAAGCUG
Fewer inactive variants are shown than the library holds.

>  <sequence.text>
AUUACCCUGAUCAACGAGUGA [Fam2.1 aminoacylation ribozyme variant]

>  <target.entity>
biotinyl-Phe-oxazolone

>  <self-aminoacylation>
66.4

$$$$
>  <sequence.text>
AUUACCCUGGGCAUCGAGUUA [Fam2.1 aminoacylation ribozyme variant]

>  <target.entity>
biotinyl-Phe-oxazolone

>  <self-aminoacylation>
1.15

$$$$
>  <sequence.text>
AUUCUCCUGGUCAUCGAGUGA [Fam2.1 aminoacylation ribozyme variant]

>  <target.entity>
biotinyl-Phe-oxazolone

>  <self-aminoacylation>
33.7

$$$$
>  <sequence.text>
AUUACCGUGGUCAUCCAGUGA [Fam2.1 aminoacylation ribozyme variant]

>  <target.entity>
biotinyl-Phe-oxazolone

>  <self-aminoacylation>
28.8

$$$$
>  <sequence.text>
CCACACUUCAUACAAUCGGUC [Fam1B.1 aminoacylation ribozyme variant]

>  <target.entity>
biotinyl-Phe-oxazolone

>  <self-aminoacylation>
0.729

$$$$
>  <sequence.text>
AGUCACCUAGGUCAUCGGAUG [Fam2.2 aminoacylation ribozyme variant]

>  <target.entity>
biotinyl-Phe-oxazolone

>  <self-aminoacylation>
1.24

$$$$
>  <sequence.text>
CCACACUCCAAGAAAUCGGUC [Fam1B.1 aminoacylation ribozyme variant]

>  <target.entity>
biotinyl-Phe-oxazolone

>  <self-aminoacylation>
0.991

$$$$
>  <sequence.text>
AUCCACCUAGGUCAUCUGGUG [Fam2.2 aminoacylation ribozyme variant]

>  <target.entity>
biotinyl-Phe-oxazolone

>  <self-aminoacylation>
26.4

$$$$
>  <sequence.text>
AUUACUGUGGUCAUCGAGUGA [Fam2.1 aminoacylation ribozyme variant]

>  <target.entity>
biotinyl-Phe-oxazolone

>  <self-aminoacylation>
14.1

$$$$

* * *

Quick reference for self-aminoacylation among some sequences
Tested on: biotinyl-Phe-oxazolone
assay.protocol: self-aminoacylation, catalytic enhancement (BFO) (fold over background); higher = more active; k-Seq, kA / k0A0; sequences stand for … in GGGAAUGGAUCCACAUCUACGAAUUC…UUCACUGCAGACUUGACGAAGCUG
This sample holds only a part of the variants without activity.
observation.type: self-aminoacylation

>  <sequence.text>
AUAACCCUGGUCAUCGAUUGA [Fam2.1 aminoacylation ribozyme variant]

>  <observation.type>
self-aminoacylation

>  <measurement>
0.646

$$$$
>  <sequence.text>
AUUCUCCUAGCUCAUCGGGUG [Fam2.2 aminoacylation ribozyme variant]

>  <observation.type>
self-aminoacylation

>  <measurement>
23.2

$$$$
>  <sequence.text>
AUUCACCUAGGUCACCGCGUG [Fam2.2 aminoacylation ribozyme variant]

>  <observation.type>
self-aminoacylation

>  <measurement>
85.2

$$$$
>  <sequence.text>
CCGCACUUCAAGCAAUCGUUC [Fam1B.1 aminoacylation ribozyme variant]

>  <observation.type>
self-aminoacylation

>  <measurement>
1.26

$$$$
>  <sequence.text>
CUUUACCUAGGUCAUCGGGUG [Fam2.2 aminoacylation ribozyme variant]

>  <observation.type>
self-aminoacylation

>  <measurement>
25.3

$$$$
>  <sequence.text>
AAGUUUGCUAAUCGUGGCAAG [Fam3.1 aminoacylation ribozyme variant]

>  <observation.type>
self-aminoacylation

>  <measurement>
0.796

$$$$
>  <sequence.text>
CCACACCUCAAGCUAUCGGUC [Fam1B.1 aminoacylation ribozyme variant]

>  <observation.type>
self-aminoacylation

>  <measurement>
1.1

$$$$
>  <sequence.text>
AAUUUUGCUAAUAGGCGCAAG [Fam3.1 aminoacylation ribozyme variant]

>  <observation.type>
self-aminoacylation

>  <measurement>
1.5

$$$$
>  <sequence.text>
AAGUUUGCUAAUAGUCGCUAA [Fam3.1 aminoacylation ribozyme variant]

>  <observation.type>
self-aminoacylation

>  <measurement>
1.96

$$$$

* * *

Tested on: biotinyl-Leu-oxazolone
assay.protocol: self-aminoacylation, catalytic enhancement (BLO) (fold over background); higher = more active; k-Seq, kA / k0A0; sequences stand for … in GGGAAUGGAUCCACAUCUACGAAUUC…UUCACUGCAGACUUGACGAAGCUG
Fewer inactive variants are shown than the library holds.
Kindly return met if reported self-aminoacylation is no lower than 2; return not met if it is lower.

>  <sequence.text>
UAGUUUGCUAAUAGUCACAAG [Fam3.1 aminoacylation ribozyme variant]

>  <assigned.class>
not met

$$$$
>  <sequence.text>
AUUCACCUAGGUCUUCGGGUA [Fam2.2 aminoacylation ribozyme variant]

>  <assigned.class>
met

$$$$
>  <sequence.text>
CUACUUAAAACAAACGGUCUG [Fam1A.1 aminoacylation ribozyme variant]

>  <assigned.class>
not met

$$$$
>  <sequence.text>
AUUCACCUACGUCAUCGCGUG [Fam2.2 aminoacylation ribozyme variant]

>  <assigned.class>
met

$$$$
>  <sequence.text>
AAUUUUGCUAAUAGUCGUAAG [Fam3.1 aminoacylation ribozyme variant]

>  <assigned.class>
not met

$$$$
>  <sequence.text>
AUUACCCUAGUUAUCGAGUGA [Fam2.1 aminoacylation ribozyme variant]

>  <assigned.class>
met

$$$$
>  <sequence.text>
CUACUUCAAACAAUCGGUAUC [Fam1A.1 aminoacylation ribozyme variant]

>  <assigned.class>
not met

$$$$
>  <sequence.text>
CUACUACAAACGAUCGGUCUG [Fam1A.1 aminoacylation ribozyme variant]

>  <assigned.class>
not met

$$$$
>  <sequence.text>
CUACUUCAGACAAUCCGUCUG [Fam1A.1 aminoacylation ribozyme variant]

>  <assigned.class>
not met

$$$$
>  <sequence.text>
CCGCAAUUCAAGCAAUCGGUC [Fam1B.1 aminoacylation ribozyme variant]

>  <assigned.class>
not met

$$$$
>  <sequence.text>
CUACUUCACACAACCGGUCUG [Fam1A.1 aminoacylation ribozyme variant]

>  <assigned.class>
not met

$$$$
>  <sequence.text>
AUUACACUGGUCAUCGAGUGU [Fam2.1 aminoacylation ribozyme variant]

>  <assigned.class>
met

$$$$
>  <sequence.text>
AAGUUUGCUGCUAGUCGCAAG [Fam3.1 aminoacylation ribozyme variant]

>  <assigned.class>
not met

$$$$
>  <sequence.text>
AAUCACCUAGGUCAUUGGGUG [Fam2.2 aminoacylation ribozyme variant]

>  <assigned.class>
met

$$$$
>  <sequence.text>
CCACACUUCGAGCAAUCGGUG [Fam1B.1 aminoacylation ribozyme variant]

>  <assigned.class>
met

$$$$
>  <sequence.text>
AAGUAUGCUAAUAGUCGCAAA [Fam3.1 aminoacylation ribozyme variant]

>  <assigned.class>
not met

$$$$
>  <sequence.text>
CAACUUCAAACAAUAGGUCUG [Fam1A.1 aminoacylation ribozyme variant]

>  <assigned.class>
not met

$$$$
>  <sequence.text>
CCACACUUCAAGCUAUCGGCC [Fam1B.1 aminoacylation ribozyme variant]

>  <assigned.class>
not met

$$$$
